Data provenance is paper PMC9090415.

- STUDY_TARGET: P. falciparum apicoplast DNA polymerase (Pf-apPOL) (Plasmodium falciparum)
- EXPERIMENT_SUMMARY: Fluorescence-based high-throughput DNA polymerase assay (molecular beacon), primary screen and dose-response
- Format: biochemical
- MEASUREMENT_PARAMETERS: DRC-1; 10'; concentration 10
MEASURED_ATTRIBUTE: % inhibition Apo pol 10' (%)
The reply should contain only the number, in %.

Completed entries (count: 3):
given_smiles=COCC(=O)Nc1c(-c2cccc(F)c2)nc2cc(C)ccn12 study_target="P. falciparum apicoplast DNA polymerase (Pf-apPOL) (Plasmodium falciparum)" recorded_value=50.0286
given_smiles=O=C(Nc1cccc(Cl)c1)Nc1nnc(-c2ccncc2)s1 study_target="P. falciparum apicoplast DNA polymerase (Pf-apPOL) (Plasmodium falciparum)" recorded_value=19.819
given_smiles=Cc1cccc(CC(=O)N2CCc3c(nc4cc(-c5ccccc5)[nH]n4c3=O)C2)c1 study_target="P. falciparum apicoplast DNA polymerase (Pf-apPOL) (Plasmodium falciparum)" recorded_value=68

Alright, here's another compound for you.
Can you look up % inhibition Apo pol 10' on P. falciparum apicoplast DNA polymerase (Pf-apPOL) (Plasmodium falciparum) for O=[N+]([O-])c1cc2c(cc1CN1CCN(c3cccc(Cl)c3)CC1)OCO2 ? 35.0383

---

Parameter % inhibition T4 40': see the listing below.
- STUDY_TARGET: bacteriophage T4 DNA polymerase (Enterobacteria phage T4, UniProt P04415)
- Construct: made in house
- Sequence (P04415 whole entry): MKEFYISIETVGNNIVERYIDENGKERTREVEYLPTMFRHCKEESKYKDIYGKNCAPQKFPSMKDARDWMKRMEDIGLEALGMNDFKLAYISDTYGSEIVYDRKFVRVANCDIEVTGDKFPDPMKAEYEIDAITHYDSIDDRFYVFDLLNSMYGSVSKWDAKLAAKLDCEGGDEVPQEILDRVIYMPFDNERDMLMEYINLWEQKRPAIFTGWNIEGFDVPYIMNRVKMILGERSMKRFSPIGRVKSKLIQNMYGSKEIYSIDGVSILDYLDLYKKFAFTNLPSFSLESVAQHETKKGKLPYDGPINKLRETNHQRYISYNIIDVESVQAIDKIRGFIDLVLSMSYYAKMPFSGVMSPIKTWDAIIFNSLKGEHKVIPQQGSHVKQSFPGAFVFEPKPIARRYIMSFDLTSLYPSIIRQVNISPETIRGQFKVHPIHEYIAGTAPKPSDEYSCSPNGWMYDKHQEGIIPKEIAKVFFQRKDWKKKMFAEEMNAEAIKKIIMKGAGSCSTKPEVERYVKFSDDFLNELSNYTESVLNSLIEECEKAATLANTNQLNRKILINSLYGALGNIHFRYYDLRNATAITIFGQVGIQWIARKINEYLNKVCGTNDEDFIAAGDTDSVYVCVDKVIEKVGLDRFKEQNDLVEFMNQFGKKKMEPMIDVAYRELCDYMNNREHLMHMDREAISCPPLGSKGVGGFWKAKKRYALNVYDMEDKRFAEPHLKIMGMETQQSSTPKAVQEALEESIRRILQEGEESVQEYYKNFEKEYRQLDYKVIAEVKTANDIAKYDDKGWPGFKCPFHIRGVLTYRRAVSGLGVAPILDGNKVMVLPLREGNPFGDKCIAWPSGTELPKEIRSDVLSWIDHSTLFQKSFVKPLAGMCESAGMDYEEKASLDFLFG
- EXPERIMENT_SUMMARY: Counter-screen against bacteriophage T4 DNA polymerase
- Type: biochemical
- MEASUREMENT_PARAMETERS: DRC-2; 40'; concentration 40
- Procedure: Codon-optimized, exonuclease-deficient Pf-apPOL was overexpressed in E. coli BL21 (DE3) and purified as described. The protein was dialysed against two, 1-liter changes of 20 mM Tris-HCl (pH 8.0), 400 mM NaCl, and 20% glycerol. […] Each compound was tested in a dose-response format to determine IC50 values. […] T4 DNA polymerase can be produced in large quantities, and is in the same family (B-family) as the replicative human DNA polymerases (α, δ, and ε)[20].
The reply should contain only the number, in %.

Completed entries (count: 3):
given_smiles=COc1cccc(C(=O)N2CCc3c(nc4cc(-c5ccccc5)[nH]n4c3=O)C2)c1OC readout_units=% recorded_value=-28
given_smiles=CCCCC(=O)N1CCc2c(nc3cc(-c4ccccc4Cl)[nH]n3c2=O)C1 readout_units=% recorded_value=4.74
given_smiles=Cc1ccccc1C(=O)N1CCc2c(nc3cc(-c4ccccc4)[nH]n3c2=O)C1 readout_units=% recorded_value=-26

Alright, here's another compound for you.
Can you look up % inhibition T4 40' on bacteriophage T4 DNA polymerase (Enterobacteria phage T4, UniProt P04415) for Cc1ccc(-n2nnc(C(=O)O)c2-c2ccccn2)c(F)c1 ? 27

---

Parameter % inhibition Apol 90' 80: see the listing below.
- STUDY_TARGET: P. falciparum apicoplast DNA polymerase (Pf-apPOL) (Plasmodium falciparum, UniProt Q8ILY1)
- Sequence (Q8ILY1 entry or part of it): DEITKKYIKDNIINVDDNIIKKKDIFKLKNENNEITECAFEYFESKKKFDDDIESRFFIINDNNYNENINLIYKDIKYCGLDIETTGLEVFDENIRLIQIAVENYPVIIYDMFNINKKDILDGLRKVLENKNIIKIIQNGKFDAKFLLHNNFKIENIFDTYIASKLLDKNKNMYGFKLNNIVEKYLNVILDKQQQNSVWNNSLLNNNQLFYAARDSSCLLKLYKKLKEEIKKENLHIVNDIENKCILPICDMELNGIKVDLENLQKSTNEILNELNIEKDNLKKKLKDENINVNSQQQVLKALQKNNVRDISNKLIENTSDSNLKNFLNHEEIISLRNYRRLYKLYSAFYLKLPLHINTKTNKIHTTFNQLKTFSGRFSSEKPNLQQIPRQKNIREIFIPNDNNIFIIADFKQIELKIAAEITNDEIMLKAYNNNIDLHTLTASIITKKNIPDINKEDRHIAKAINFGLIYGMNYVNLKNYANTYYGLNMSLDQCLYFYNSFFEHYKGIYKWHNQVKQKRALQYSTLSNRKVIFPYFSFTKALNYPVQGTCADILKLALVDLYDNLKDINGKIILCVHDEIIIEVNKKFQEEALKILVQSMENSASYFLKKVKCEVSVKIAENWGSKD
- EXPERIMENT_SUMMARY: Fluorescence-based high-throughput DNA polymerase assay (molecular beacon), primary screen and dose-response
- Type: biochemical
- MEASUREMENT_PARAMETERS: DRC-1; read at 90'; concentration 80
- Description: The HT assay employs a molecular beacon, a stem-loop DNA template with a Cy3 dye and the Black Hole Quencher on the 3′ and 5′ ends of the DNA, respectively. Pf-apPOL concentration is based on a calculated absorptivity of ε280 = 56750 M^−1 cm^−1. […] To identify apPOL inhibitors we utilised our previously developed high-throughput DNA polymerase assay. […] The assay accurately recapitulates the kinetic behaviour of apPOL, as measured through more conventional low-throughput gel-based assays. […]
Param answer (str): number followed by unit.

Completed entries (count: 3):
given_smiles=CC(=O)OCC1=C(C(=O)[O-])N2C(=O)[C@@H](NC(=O)Cc3cccs3)[C@H]2SC1.[Na+] measured_attribute="% inhibition Apol 90' 80" recorded_value=67.9349%
given_smiles=Cn1nc(-c2nnc(-c3ccccc3F)o2)c2c1CCN(C(=O)c1ccccc1Cl)C2 measured_attribute="% inhibition Apol 90' 80" recorded_value=65%
given_smiles=N#Cc1c(O)nc(N2CCCCC2)nc1-c1ccc2c(c1)OCO2 measured_attribute="% inhibition Apol 90' 80" recorded_value=71.163%

Alright, here's another molecule for you.
Can you look up % inhibition Apol 90' 80 on P. falciparum apicoplast DNA polymerase (Pf-apPOL) (Plasmodium falciparum, UniProt Q8ILY1) for Cn1nc(-c2nc(-c3ccccc3)no2)c2c1CCN(C(=O)Cc1cccs1)C2 ? 67%
